# measurementTarget: Acetylcholinesterase (Rattus norvegicus)
# Sequence (P37136 whole entry): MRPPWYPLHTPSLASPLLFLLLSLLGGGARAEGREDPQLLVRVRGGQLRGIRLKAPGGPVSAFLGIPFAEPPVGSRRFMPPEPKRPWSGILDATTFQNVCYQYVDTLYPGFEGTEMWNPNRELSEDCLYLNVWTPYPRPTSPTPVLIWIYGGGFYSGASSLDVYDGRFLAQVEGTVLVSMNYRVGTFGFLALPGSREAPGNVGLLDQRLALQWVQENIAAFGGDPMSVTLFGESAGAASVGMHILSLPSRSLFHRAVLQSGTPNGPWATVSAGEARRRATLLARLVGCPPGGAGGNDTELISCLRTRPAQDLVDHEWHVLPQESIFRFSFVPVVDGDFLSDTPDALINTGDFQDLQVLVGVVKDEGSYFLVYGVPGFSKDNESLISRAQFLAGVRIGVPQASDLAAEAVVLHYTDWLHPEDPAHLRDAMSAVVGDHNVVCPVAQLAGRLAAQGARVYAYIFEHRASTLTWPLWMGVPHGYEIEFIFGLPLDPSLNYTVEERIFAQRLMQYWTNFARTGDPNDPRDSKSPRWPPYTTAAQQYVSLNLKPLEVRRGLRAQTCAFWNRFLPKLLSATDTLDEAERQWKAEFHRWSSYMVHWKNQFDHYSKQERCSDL
# assayProcedure: Inhibition of rat cortex AChE using acetylthiocholine iodide as substrate after 15 mins by Ellman's method
Please go through the items and note down their IC50.
Give the value in µM but do not write µM after it.

// IC50 lookup, key: COc1ccccc1CN(C)CCCCNC(=O)c1cc(O)c(C(=O)NCCCCN(C)Cc2ccccc2OC)cc1O 7.37

Requested field: IC50. Item: COc1ccccc1CN(C)CCCCCCNC(=O)c1cc(O)c(C(=O)NCCCCCCN(C)Cc2ccccc2OC)cc1O 10.6

I have this compound here, CCN(CCCCNC(=O)c1cc(O)c(C(=O)NCCCCN(CC)Cc2ccccc2N(C)C)cc1O)Cc1ccccc1N(C)C , and I need its recorded IC50. 4.17

Look up IC50: CCN(CCCNC(=O)c1cc(O)c(C(=O)NCCCN(CC)Cc2ccccc2)cc1O)Cc1ccccc1 7.8

Which IC50 is listed for CN(CCCCNC(=O)c1cc(O)c(C(=O)NCCCCN(C)Cc2ccccc2)cc1O)Cc1ccccc1 ? 5.21

May I ask what IC50 has been recorded for O=C(NCCCCN1CCOc2ccccc2C1)c1cc(O)c(C(=O)NCCCCN2CCOc3ccccc3C2)cc1O ? 30.8

# lookup: IC50 of CCN(CCCCCCNC(=O)c1cc(O)c(C(=O)NCCCCCCN(CC)Cc2ccccc2OC)cc1O)Cc1ccccc1OC 1.68

# IC50 lookup, item CN(CCCNC(=O)c1cc(O)c(C(=O)NCCCN(C)Cc2ccccc2)cc1O)Cc1ccccc1 11.3

Tell me the measured IC50 of COc1ccccc1CN(C)CCCNC(=O)c1cc(O)c(C(=O)NCCCN(C)Cc2ccccc2OC)cc1O , please. 9.21
